Source: PubChem BioAssay (NCI)

Measured growth values are reported for all entries that follow.
- Test system: OVCAR-3 ovarian
- RUN_DESCRIPTION: NCI-60 one-dose screen, 48 h (100 = growth as untreated, 0 = no growth, -100 = all killed)
- EXPERIMENTAL_CONDITIONS: 10 µM unless noted
The panel holds about 83,000 compounds, 20% with a hit somewhere; the sample as a whole holds those more often.
OUTCOME_MEASURE: growth (%)

[[record]]
compound = "COCCOCCOCc1n(Cc2ccc3ccccc3n2)c2ccccc2[n+]1Cc1ccc2ccccc2c1"
reported_value = 1.01

[[record]]
compound = "COc1ccc(C2CC(c3cccc(Nc4ccnc5cc(Cl)ccc45)c3)=NN2c2ccc(Cl)cc2)cc1 (stereo not given)"
reported_value = 74.2

[[record]]
compound = "C=CCn1c(SCC(=O)Nc2ccc(C(=O)/C=C/c3ccccc3)cc2)nnc1-c1ccc(OC)c(OC)c1"
reported_value = 78.1

[[record]]
compound = "CC(C)(C)CC(C)(C)NCc1cc(C(C)(C)C)cc(CNC(C)(C)CC(C)(C)C)c1O"
reported_value = 79.2

[[record]]
compound = "O=C1Cc2c([nH]c3ccc([N+](=O)[O-])cc23)-c2ccccc2N1"
reported_value = -14.4

[[record]]
compound = "CC(C)COC(=O)NC(C)(C)C"
reported_value = 105

[[record]]
compound = "COc1ccc(/C=C/C(=O)c2ccc(NC(=O)CSc3nnc(-c4ccc(Cl)cc4)n3-c3ccccc3)cc2)cc1"
reported_value = 102

[[record]]
compound = "Cc1nc2ccc(Nc3nc(NCCN4CCOCC4)nc(Nc4ccc(F)cc4)n3)cc2n1Cc1ccccc1"
reported_value = 73.7

[[record]]
compound = "COc1cccc(NC(=O)[C@H](C(C)C)n2c(=O)[nH]c3ccccc3c2=O)c1"
reported_value = 109

[[record]]
compound = "COc1cc2c(cc1OC)C(=O)C(Br)CC2 (stereo not given)"
reported_value = 38.9

[[record]]
compound = "N#Cc1nc(-c2ccc(Cl)cc2)cc(-c2ccc(Nc3nc(N4CCCCC4)nc(N4CCCCC4)n3)cc2)c1N"
reported_value = 105

[[record]]
compound = "CCN(CC)CCCCCCCNc1cc(OC)cc2c(C)ccnc12"
reported_value = 20.6

[[record]]
compound = "Nc1ccc(C(OC(=O)c2cc3ccccc3c(Cc3c(O)c(C(=O)OC(c4ccc(N)cc4)(c4ccc(N)cc4)c4ccc(N)cc4)cc4ccccc34)c2O)(c2ccc(N)cc2)c2ccc(N)cc2)cc1"
reported_value = -14.3

[[record]]
compound = "O=C(Cn1nncc1CN1C(=O)CSC1=O)Nc1ccc(F)cc1"
reported_value = 107

[[record]]
compound = "C=CC[C@]1(O)CC[C@H]2[C@@H]3CCc4cc(O)ccc4[C@H]3CC[C@@]21C"
reported_value = 102

[[record]]
compound = "OC(c1cc(-c2ccc(C(F)(F)F)cc2)nc(-c2ccc(C(F)(F)F)cc2)c1)C1CCCCN1 (stereo not given)"
reported_value = -90.4

[[record]]
compound = "c1ccc(-c2[nH]c3ccccc3c2-c2ccccc2)cc1"
reported_value = 96.1

[[record]]
compound = "O=c1[nH]c2ccccc2n2cc3cccnc3c12"
reported_value = 91.8

[[record]]
compound = "Cc1nc2c(-c3cnc(N)nc3)nc(N3CCOCC3)nc2n1C(C)C"
reported_value = 10

[[record]]
compound = "O=C(c1ccccc1)N(CCCCl)C(=O)N(CCCCl)C(=O)c1ccccc1"
reported_value = 93.7

